Values compiled from paper PMC8699473.

Test: Short-term stability in spiked pooled human plasma (bench-top, 4 °C, 56 °C)
Settings: validation standard ULOV
metric: Short-time stability (24h, RT, with daylight) Accuracy [%] (%)
The response must be a number in % with no trailing unit.

Here's what some known entries look like.
{"columns": ["compound", "unit.abbrev", "result"],
 "data": [
  ["N#CC[C@H](C1CCCC1)n1cc(-c2ncnc3[nH]ccc23)cn1 [Ruxolitinib]", "%", 102.3],
  ["Cc1ccc(C(=O)Nc2ccc(CN3CCN(C)CC3)c(C(F)(F)F)c2)cc1C#Cc1cnc2cccnn12 [Ponatinib]", "%", 97.8]
]}

Kindly consider the entry below.
Input line: # get_value(readout='Short-time stability (24h, RT, with daylight) Accuracy [%]', item= COc1cc2nccc(Oc3ccc(NC(=O)Nc4cc(C)on4)c(Cl)c3)c2cc1OC [Tivozanib] )
Output line: 104.7

---

Test: Short-term stability in spiked pooled human plasma (bench-top, 4 °C, 56 °C)
Conditions: validation standard ULOV
# Short-time stability (24h, 4°C, without daylight) Accuracy [%] listing for each entry below
Could you give me the number in %? Just the number is fine.

Answered examples (8):
{"columns": ["compound", "result"],
 "data": [
  ["CNC(=O)c1ccc(N2C(=S)N(c3ccc(C#N)c(C(F)(F)F)c3)C(=O)C2(C)C)cc1F [Enzalutamide]", 95.8],
  ["CC(C)(C)c1nc(-c2cccc(NS(=O)(=O)c3c(F)cccc3F)c2F)c(-c2ccnc(N)n2)s1", 94.0],
  ["CNC(=O)c1cc(Oc2ccc(NC(=O)Nc3ccc(Cl)c(C(F)(F)F)c3)cc2)ccn1", 92.5],
  ["Cc1c(C(=O)Nc2ccc(N3C[C@@H](C)O[C@@H](C)C3)nc2)cccc1-c1ccc(OC(F)(F)F)cc1", 96.7],
  ["Cc1nc(Nc2ncc(C(=O)Nc3c(C)cccc3Cl)s2)cc(N2CCN(CCO)CC2)n1", 96.7],
  ["CN(C)C(=O)c1cc2cnc(Nc3ccc(N4CCNCC4)cn3)nc2n1C1CCCC1", 84.9],
  ["CNC(=O)c1cc(Oc2ccc(NC(=O)Nc3ccc(Cl)c(C(F)(F)F)c3)c(F)c2)ccn1", 101.4],
  ["O=C(c1cc(Cc2n[nH]c(=O)c3ccccc23)ccc1F)N1CCN(C(=O)C2CC2)CC1", 99.7]
]}

Input line: Please give the measured Short-time stability (24h, 4°C, without daylight) Accuracy [%] for this compound: Nc1cccc2c1C(=O)N(C1CCC(=O)NC1=O)C2=O (stereo not drawn) [Pomalidomide]
Output line: 88.6

Input line: Data request, read-out Short-time stability (24h, 4°C, without daylight) Accuracy [%], for `C[C@]12CC[C@H](O)CC1=CC[C@@H]1[C@@H]2CC[C@]2(C)C(c3cccnc3)=CC[C@@H]12`
Output line: 95.4

Input line: // lookup Short-time stability (24h, 4°C, without daylight) Accuracy [%] for `CCCS(=O)(=O)Nc1ccc(F)c(C(=O)c2c[nH]c3ncc(-c4ccc(Cl)cc4)cc23)c1F`
Output line: 93.8

Input line: # query: Short-time stability (24h, 4°C, without daylight) Accuracy [%] of entry `COc1cc2ncnc(Nc3ccc(F)c(Cl)c3)c2cc1NC(=O)/C=C/CN1CCCCC1`
Output line: 92.4

---

Assay: Short-term stability in spiked pooled human plasma (bench-top, 4 °C, 56 °C)
Settings: validation standard ULOV
metric: Short-time stability (24h, RT, without daylight) Accuracy [%] (%)
Record the value in %, omitting the unit from your answer.

{"columns": ["compound", "unit.abbrev", "result"],
 "data": [
  ["Cc1cn(-c2cc(NC(=O)c3ccc(C)c(Nc4nccc(-c5cccnc5)n4)c3)cc(C(F)(F)F)c2)cn1", "%", 110.3]
]}

Input line: So what does the record say about Short-time stability (24h, RT, without daylight) Accuracy [%] for `C[C@H]1Oc2cc(cnc2N)-c2c(nn(C)c2C#N)CN(C)C(=O)c2ccc(F)cc21` ?
Output line: 99.9

Input line: Fill in the blank: the reported Short-time stability (24h, RT, without daylight) Accuracy [%] of `Cn1cnc2c(F)c(Nc3ccc(Br)cc3F)c(C(=O)NOCCO)cc21` is ____.
Output line: 97.3

Input line: Look up Short-time stability (24h, RT, without daylight) Accuracy [%]: `Cc1nc(Nc2ncc(C(=O)Nc3c(C)cccc3Cl)s2)cc(N2CCN(CCO)CC2)n1`
Output line: 93.1

Input line: Please give the measured Short-time stability (24h, RT, without daylight) Accuracy [%] for this compound: `C#Cc1cccc(Nc2ncnc3cc(OCCOC)c(OCCOC)cc23)c1`
Output line: 101.0

Input line: Which Short-time stability (24h, RT, without daylight) Accuracy [%] is listed for `CNC(=O)c1cc(Oc2ccc(NC(=O)Nc3ccc(Cl)c(C(F)(F)F)c3)cc2)ccn1` ?
Output line: 89.2

Input line: What Short-time stability (24h, RT, without daylight) Accuracy [%] value was documented for this compound, `COC(=O)N[C@@H](C)CNc1nccc(-c2cn(C(C)C)nc2-c2cc(Cl)cc(NS(C)(=O)=O)c2F)n1` ?
Output line: 108.3

Input line: Look up Short-time stability (24h, RT, without daylight) Accuracy [%] for this compound: `O=c1[nH]c(=O)n([C@H]2C[C@H](O)[C@@H](CO)O2)cc1C(F)(F)F`
Output line: 67.3

Input line: Given the entry `CCCS(=O)(=O)Nc1ccc(F)c(C(=O)c2c[nH]c3ncc(-c4ccc(Cl)cc4)cc23)c1F` , report its measured Short-time stability (24h, RT, without daylight) Accuracy [%].
Output line: 88.2

---

Assay: Long-term stability in spiked pooled human plasma
Conditions: validation standard LLOV
# reported Long-term stability, 1 month, -80°C Accuracy [%]; entries follow
Answer with a number only, understood to be in %.

Some solved cases for reference:
{"columns": ["compound", "unit.abbrev", "result"],
 "data": [
  ["Cc1[nH]c2ccccc2c1CCNCc1ccc(/C=C/C(=O)NO)cc1 [Panobinostat]", "%", 33.7],
  ["CNC(=O)c1ccc(N2C(=S)N(c3cnc(C#N)c(C(F)(F)F)c3)C(=O)C23CCC3)cc1F [Apalutamide]", "%", 100.0],
  ["C#Cc1cccc(Nc2ncnc3cc(OCCOC)c(OCCOC)cc23)c1 [Erlotinib]", "%", 108.0],
  ["Nc1cccc2c1C(=O)N(C1CCC(=O)NC1=O)C2=O (centres unmarked) [Pomalidomide]", "%", 85.8],
  ["O=C(Nc1cnn2ccc(N3CCC[C@@H]3c3cc(F)ccc3F)nc12)N1CC[C@H](O)C1 [Larotrectinib]", "%", 87.5]
]}

Input line: Record request: Long-term stability, 1 month, -80°C Accuracy [%] value, item COc1cc2ncnc(Nc3ccc(F)c(Cl)c3)c2cc1OCCCN1CCOCC1 [Gefitinib]
Output line: 89.0

Input line: I am curious: what Long-term stability, 1 month, -80°C Accuracy [%] value has been reported for C=CC(=O)Nc1cc(Nc2nccc(-c3cn(C)c4ccccc34)n2)c(OC)cc1N(C)CCN(C)C [Osimertinib] ?
Output line: 86.9

Input line: Could you tell me which Long-term stability, 1 month, -80°C Accuracy [%] is on file for COc1cc2nccc(Oc3ccc(NC(=O)NC4CC4)c(Cl)c3)c2cc1C(N)=O [Lenvatinib] ?
Output line: 107.0

Input line: Name the reported Long-term stability, 1 month, -80°C Accuracy [%] value associated with the compound O=C1CN2Cc3c(ccc(Cl)c3Cl)N=C2N1 [Anagrelide]
Output line: 121.5

Input line: I am curious: what Long-term stability, 1 month, -80°C Accuracy [%] value has been reported for CN(C)C(=O)c1cc2cnc(Nc3ccc(N4CCNCC4)cn3)nc2n1C1CCCC1 [Ribociclib] ?
Output line: 83.5

Input line: # lookup: Long-term stability, 1 month, -80°C Accuracy [%] of NC(=O)c1cccc2cn(-c3ccc([C@@H]4CCCNC4)cc3)nc12 [Niraparib]
Output line: 93.4

Input line: I am curious: what Long-term stability, 1 month, -80°C Accuracy [%] value has been reported for Cc1cc(Nc2ncc(Cl)c(Nc3ccccc3S(=O)(=O)C(C)C)n2)c(OC(C)C)cc1C1CCNCC1 [Ceritinib] ?
Output line: 96.1

Input line: Recorded Long-term stability, 1 month, -80°C Accuracy [%] for Cc1nc(Nc2ncc(C(=O)Nc3c(C)cccc3Cl)s2)cc(N2CCN(CCO)CC2)n1 [Dasatinib] , please?
Output line: 89.0

Input line: I'd like to know its Long-term stability, 1 month, -80°C Accuracy [%]. The compound in question is CN(C)C/C=C/C(=O)Nc1cc2c(Nc3ccc(F)c(Cl)c3)ncnc2cc1O[C@H]1CCOC1 [Afatinib]
Output line: 75.4

Input line: Fill in: Long-term stability, 1 month, -80°C Accuracy [%] of O=C(c1cc(Cc2n[nH]c(=O)c3ccccc23)ccc1F)N1CCN(C(=O)C2CC2)CC1 [Olaparib] is ___
Output line: 110.5

Input line: Returns the measured Long-term stability, 1 month, -80°C Accuracy [%] for the input compound. Input: Cc1c(C(=O)Nc2ccc(N3C[C@@H](C)O[C@@H](C)C3)nc2)cccc1-c1ccc(OC(F)(F)F)cc1 [Sonidegib]
Output line: 108.6

Input line: GET /values?readout=Long-term stability, 1 month, -80°C Accuracy [%]&item= COC(=O)c1ccc2c(c1)NC(=O)/C2=C(\Nc1ccc(N(C)C(=O)CN2CCN(C)CC2)cc1)c1ccccc1 [Nintedanib]
Output line: 102.1
